Experiment: differential killing of epithelial or mesenchymal cells, primary screen, imaging, PC-3E GFP, TEM4-18 mCherry, co-culture (AID 1345086);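 further: cells exposed to compound for 72 h before imaging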
Conditions: imaging cell counts, measured here: mesenchymal TEM4-18 mCherry cell survival, at 1 µM
valueKind: normalised cell number
Lab note: record the figure alone, no unit after it.

Known results for compounds:
{"columns": ["compound", "normalised cell number"],
 "data": [
  ["O=c1ccn([C@@H]2O[C@H](COP(=O)(O)OP(=O)(O)OP(=O)(O)O)[C@@H](O)[C@H]2O)c(=O)[nH]1", 1.1],
  ["CC1(C)O[C@@H]2CC3C4CCC5=CC(=O)C=C[C@]5(C)[C@@]4(F)[C@@H](O)C[C@]3(C)[C@]2(C(=O)CO)O1 (some centres undefined)", 1.23],
  ["CC1(C)CC[C@]2(C(=O)O)CC[C@]3(C)C(=CCC4[C@@]5(C)CC[C@@H](O)C(C)(C)C5CC[C@]43C)C2C1 (some centres undefined)", 0.95]
]}

Qu. Could you tell me which normalised cell number is on file for C=C[C@@]1(C)CC(=O)[C@@]2(O)[C@](C)(O1)[C@@H](O)[C@@H](O)C1C(C)(C)CC[C@H](O)[C@@]12C (some centres undefined) ?
Ans. 1.05

Qu. Need normalised cell number, item "N=c1ccn2c(n1)O[C@@H]1[C@@H](O)[C@H](CO)O[C@@H]12"
Ans. 0.27

Qu. Entry CO/N=C(/C(=O)NC1C(=O)N2C(C(=O)O)=C(C[N+]3(C)CCCC3)CSC12)c1csc(N)n1 (centres undefined) has what normalised cell number?
Ans. 1.22

Qu. Look up normalised cell number: COC1C(O)C(O)C(O)[C@@H](O)C1O (some centres undefined)
Ans. 1.05

Qu. // returns reported normalised cell number for input NC(Cc1ccc(F)cc1)C(=O)O (centres undefined)
Ans. 0.84

Qu. For the compound "O=C(Cc1ccncc1)c1ccc(F)cc1" , what normalised cell number is on record?
Ans. 0.95
